Values from PubChem BioAssay

assay: inhibitors of mutant huntingtin aggregation, primary screen, imaging, exon1htt(103Q)mCFP cells, high-content imaging (AID 483); details: exon1htt(103Q)mCFP cell line, aggregate imaging, at 2 µM; stronger effect = higher value;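 further: compound exposure lasted 3 days before fixation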
Catalogue of inhibition of aggregation values
Express your answer in %, writing the number without its unit.

Before answering, review these 3 worked examples.
>>> print(df.to_string())
                                   compound                  parameter  endpointresult
0                CCCCOc1ccc(-c2nnc(N)s2)cc1  inhibition of aggregation            -7.4
1  CC1(C)Cc2c(c(-c3ccccc3)nc(N3CCCC3)c2C(N)=O)CO1  inhibition of aggregation            15.7
2        Nc1ccc(S(=O)(=O)NC(=O)c2ccccc2)cc1  inhibition of aggregation            17.5

Given the entry "CCN(CC)CCNC(=O)c1cc(S(C)(=O)=O)ccc1OC" , report its measured inhibition of aggregation.
0.8

// next record "CCc1nc2sc3c(c2c(=O)o1)CCCC3"
-11.4

// next record COc1ccc(C2CNC(=O)C2)cc1OC1CCCC1 (stereo unspecified)
-10.3

// next record COc1ccc(C2/C(=C(/O)c3ccc(OC(C)C)cc3)C(=O)C(=O)N2CCCN2CCOCC2)cc1 (stereo unspecified)
-2.7

// next record "CC1(C)O[C@@H]2C[C@H]3[C@@H]4C[C@H](F)C5=CC(=O)CC[C@]5(C)[C@H]4[C@@H](O)C[C@]3(C)[C@]2(C(=O)CO)O1"
-27.2

* * *

test: inhibitors of E-selectin induction by TNFa, primary screen, imaging, HUVEC, immunofluorescence, MLSMR starter and 10KST1 sets (AID 487); conditions: HUVEC TNFalpha-induced E-selectin immunofluorescence imaging, at 2 µM; measured here: cell number, toxicity;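 further: 100% = median nuclei count of all wells on the same plate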
Catalogue of nuclei count values
Express your answer in %, writing the number without its unit.

                                   compound     parameter  uom  endpointresult
0  Cc1ccc(NC(=O)CSC2=C(C#N)C(c3ccco3)C3=C(CCCC3=O)N2)cc1 (stereo unspecified)  nuclei count    %             144
1  C=CCSc1nnc2n(CCc3ccccc3)c(=O)c3c4c(sc3n12)COC(C)(C)C4  nuclei count    %             135
2            COCCNc1oc(-c2ccc(Cl)cc2)nc1C#N  nuclei count    %             161
3            CCc1c(C(=O)O)[nH]c2ccc(Br)cc12  nuclei count    %             171
4  CCCOC(=O)C1[C@H]2C(=O)N(Cc3ccco3)C[C@]23C=C[C@H]1O3 (stereo partly specified)  nuclei count    %             155
5  CC(=O)OC(C)C[N+](C)(C)C (stereo unspecified)  nuclei count    %             109
6            COCCN(C(=O)Nc1ccccc1)c1ccccc1C  nuclei count    %             186
7      CN1CCC(=C2c3ccccc3CC(=O)c3sccc32)CC1  nuclei count    %             126
8  COc1ccc(Cn2c(=O)c3c(nc(NCCO)n3C)n(C)c2=O)cc1  nuclei count    %             131
9  CC(=O)N/C(=N/c1nc(C)cc(C)n1)Nc1ccc(NC(C)=O)cc1  nuclei count    %             154

API: the following record is the query input.
Given the entry CCC(C)n1ncn(-c2ccc(N3CCN(c4ccc(OCC5COC(Cn6cncn6)(c6ccc(Cl)cc6Cl)O5)cc4)CC3)cc2)c1=O (stereo unspecified) , report its measured nuclei count.
121
